Data provenance: patent US20250320312A1

Recorded OD450 for the following binders
Biological target: T1, Peptide 4: Biotin-AGGGGSGGGGSGGGGSAAA-Tyr-acid (N-terminal biotin; C-terminal acid)
T1 construct: control peptide without PC
T1 peptide: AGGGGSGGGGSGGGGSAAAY
Assay: scFv ELISA
Description: For ELISA analysis of scFv binding, 96-well polystyrene plates were coated with Peptide 1, 4, 5, 8 or 100 μL BSA (10 μg/mL) in PBS at 4° C. overnight. […] All plates were washed three times with PBS-Tween before 40 μL aliquots of PPE were added to assay plates along with 50 μL 10% BSA, and plates were incubated for 1 hour at room temperature. […] The amount of scFv bound to each well was quantitated from absorbance measurement at 450 nm (OD450).
Answer with the figure and its unit, nothing else.

Some binders with recorded OD450:
| binder | OD450 |
| --- | --- |
| PcOxP_DB01_B11 (scFv, V domains shown, scFv in periplasmic extract) VH: EVQLLESGGGLVQPGGSLRLSCAASGFTFEDFYMEWVRQAPGKGLEWVAASRNKANDYTTEYADSVKGRFTISRDNSKNTLYLQMNSLRAEDTAVYYCARDYFGSSYWYFDVWGQGTLVTVSS VL: DIQMTQSPSSLSASVGDRVTITCTASESLYSSKHKVHYLAWYQQKPGKAPKLLIYGASNRYHGVPSRFSGSGSGTDFTLTISSLQPEDFATYYCAQFYSYPLTFGGGTKVEIK | 0.05 OD450 |
| PcOxP_DB03_D11 (scFv, V domains shown, scFv in periplasmic extract) VH: EVQLLESGGGLVQPGGSLRLSCAASGFTFSDFYMEWVRQAPGKGLEWVAASRNKANDYTTEYADSVKGRFTISRDNSKNTLYLQMNSLRAEDTAVYYCARDYYGHSYWYFDVWGQGTLVTVSS VL: DIQMTQSPSSLSASVGDRVTITCTASESLYSSKHKVHYLAWYQQKPGKAPKLLIYGASSRYIGVPSRFSGSGSGTDFTLTISSLQPEDFATYYCAQFYEYPLTFGGGTKVEIK | 0.06 OD450 |

Shifting focus to the binder that follows.
Prompt line: Report OD450 for PcOxP_DB02_A11 (scFv, V domains shown, scFv in periplasmic extract) VH: EVQLLESGGGLVQPGGSLRLSCAASGFTFSDGYMEWVRQAPGKGLEWVAASRNIANDYTTEYADSVKGRFTISRDNSKNTLYLQMNSLRAEDTAVYYCARDYYGSSYWYFDVWGQGTLVTVSS VL: DIQMTQSPSSLSASVGDRVTITCTASESLYSSKHKVHYLAWYQQKPGKAPKLLIYGASNRYHGVPSRFSGSGSGTDFTLTISSLQPEDFATYYCAQFYYYPLTFGGGTKVEIK
Response line: 0.04 OD450
